pKi: −log10 of the molar value.
What follows is literature data on pKi for Metabotropic glutamate receptor 5 (Rattus norvegicus).

Need pKi of `CC1CCN(c2c(S(=O)(=O)c3cc(F)cc(F)c3)cnc3ccc(F)cc23)CC1` , thanks. < 6.30

Another: `Cc1ccc2ncc(S(=O)(=O)c3ccc(C)c(C)c3)c(N3CCC(C)CC3)c2c1` > 6.70

Another: `COc1ccc2ncc(S(=O)(=O)c3ccc(C)c(F)c3)c(N3CCC(C)CC3)c2c1` 6.30 to 6.70

Another: `N#Cc1cccc(S(=O)(=O)c2sc3ncccc3c2-c2ccc(Cl)cc2)c1` > 6.30

Another: `O=S(=O)(c1cc(Cl)cc(Cl)c1)c1cnc2ccc(F)cc2c1N1CCOCC1` < 6.30

Another: `COc1ccc(C(=O)N2CCc3cccc(C4CCN(S(C)(=O)=O)CC4)c3C2)cc1C#Cc1ccccn1` < 5.00

Another: `O=S(=O)(c1cc(Cl)cc(Cl)c1)c1cnc2cc(F)ccc2c1-c1cccc(F)c1` > 6.70

Another: `Cc1ccc2ncc(S(=O)(=O)c3cccc(C#N)c3)c(N3CCOCC3)c2c1` 6.30 to 6.70
